The entries below come with measured activity change, negative = inhibition values attached.
Assay: NFAT Signaling Pathway (AID 444);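 further: carbachol stimulus at about its EC50 of 1 µM final; on the % scale 0 is the no-effect control and ±100 the full control effect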
Details: Jurkat NFAT-bla M1, carbachol, beta-lactamase ratio, 5 h; at 17.2 µM (top of the series) unless noted
Procedure: NCGC Assay Overview: The nuclear factor of activated T cells (NFAT) family of transcription factors has been found primarily in most immune system cells and some other non-immune cells. NFAT plays the immunomodulatory role, primarily in T-cell activation and differentiation. […] NCGC Assay Protocol Summary: The cells were prepared in RPMI 1640 medium containing 0.1% dialyzed FBS and 25 mM HEPES at 1.6 x 10^6cell/ml. […] The %Activity was determined from the ratio of 460nm/530nm. […]
Results filed as inconclusive are left out. Calls of active or inactive are those of the source. The call rests on the fitted dose curve; in most records, active means well fitted curve in either direction with a large enough effect (not every such curve was filed as active); inconclusive means small, poorly fitted or top-dose-only effect, or another doubt; inactive means flat fitted curve, though single readings scatter.
ENDPOINT: activity change, negative = inhibition

{"columns": ["COMPOUND", "ASSAY VALUE"],
 "data": [
  ["Cc1ccccc1COc1ccc(/C(O)=C2/C(=O)C(=O)N(CCCn3ccnc3)C2c2ccco2)cc1 (stereo not drawn)", "10.8% (inactive)"],
  ["N#Cc1nc(-c2cccs2)oc1NCc1ccccc1", "-20.6% (inactive)"],
  ["CCCc1[nH]n(-c2nc3ccccc3s2)c(=O)c1C=NCCN1CCOCC1", "-13.8% (inactive)"],
  ["COc1ccc(C2/C(=C(/O)c3ccccc3)C(=O)C(=O)N2c2ncccn2)cc1OC (stereo not drawn)", "-4.09% (inactive)"],
  ["N#CCCN(C(=O)c1ccco1)c1ccccc1", "2.26% (inactive)"],
  ["COCCOC(=O)c1c(C)oc2ccc(OC(=O)COc3c(F)c(F)c(F)c(F)c3F)cc12", "-2.9% (inactive)"],
  ["COC(=O)CC1SC(=O)NC1=O (stereo not drawn)", "5.58% (inactive)"],
  ["Cc1[nH]c2ccc3c(ncn3CCC#N)c2c1C", "9.51% (inactive)"],
  ["N#Cc1c(-c2ccco2)cc(C2CC2)nc1N", "9.72% (inactive)"],
  ["CC(C)OCCCNc1ncnc2c1cnn2-c1ccccc1", "12.4% (inactive)"],
  ["Cc1cc(=O)oc(C)c1C(=O)NCC(C)C", "-1.32% (inactive)"],
  ["Cc1c(NC(=O)c2ccc(=O)oc2)c(=O)n(-c2ccccc2)n1C", "-22.5% (inactive)"],
  ["CCOC(=O)CC(=O)CSc1nnc2sc3ccccc3n12", "-0.0909% (inactive)"],
  ["O=C(c1ccc(=O)oc1)N1CCN(c2ccc(F)cc2)CC1", "-11.6% (inactive)"],
  ["COc1ccccc1Nc1ncc(-c2cccs2)s1", "11.7% (inactive)"],
  ["CN1C[C@@H](C(=O)N[C@]2(C)O[C@]3(O)[C@H]4CCCN4C(=O)[C@H](Cc4ccccc4)N3C2=O)C[C@H]2c3cccc4[nH]cc(c34)C[C@@H]21", "-15.6% [at 38 µM] (inactive)"],
  ["CCN(CC)CCN1C(=O)c2ccccc2NC1c1cc(OC)c(OC)c(OC)c1 (stereo not drawn)", "5.73% (inactive)"],
  ["Cc1nc2sc(C)c(C)c2c(=O)o1", "4.96% (inactive)"],
  ["C=CCn1c(=S)[nH]c2nc3c(cc2c1=O)COC(C)(C)C3", "5.11% (inactive)"],
  ["CCCC1Cc2c(sc3nc(SC)nc(N)c23)CO1 (stereo not drawn)", "-10.7% (inactive)"],
  ["C=CCN=C(C)C1=C(O)CCC1=O", "-7.26% (inactive)"],
  ["COC(=O)c1ccc(C2/C(=C(/O)c3ccc(OC)cc3)C(=O)C(=O)N2Cc2ccco2)cc1 (stereo not drawn)", "-12% (inactive)"],
  ["Cc1ccc(N2C(=O)CC(Cn3nc(C)cc3C)C2=O)cc1 (stereo not drawn)", "6.84% (inactive)"]
]}

Cited source for all entries: PubChem BioAssay (NCATS)
